System: Mycolicibacterium smegmatis
Experiment: Antibacterial activity against Mycobacterium smegmatis after 72 hrs
Type: functional
assay_endpoint: MIC (µg/mL)
Your answer should be a plain number; it is taken to be in µg/mL.

compound: CC[C@@H](CO)NCCN[C@@H](CC)CO
target: Mycolicibacterium smegmatis
measurement: 0.5

compound: C=C[C@@]1(C)C[C@H](O)[C@@H]2[C@@]3(C)[C@H](O)CCC(C)(C)[C@@H]3CC[C@@]2(C)O1
target: Mycolicibacterium smegmatis
measurement: 128

compound: CC1(C)CCC[C@]2(C)[C@H]3CC[C@](C)(C4CO4)C=C3C(=O)C[C@@H]12 (relative stereo)
target: Mycolicibacterium smegmatis
measurement: 128

In: Which MIC is reported for this compound? CC1(C)CCC[C@]2(C)[C@H]3CC[C@](C)(C4CO4)C=C3[C@H](O)C[C@@H]12 (relative stereo)
Out: 16

Recorded values, source ChEMBL document CHEMBL1153024.
